Kindly state normalized growth for each of the entries shown.
- EXPERIMENT_SUMMARY: chemical genetic growth profiling, strain panel (AID 1159580);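 note: tested at 20 µM; growth read once vehicle control cultures reached saturation at 30 °C; 1 = growth at the plate median or of vehicle wells; lower values mean less growth of the strain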
- EXPERIMENTAL_SETUP: S. cerevisiae deletion strains, growth OD, locus YLR268W, strain sec22, hits give low values
About 2,000 (36%) of roughly 5,500 compounds were called active. Roughly 18% stayed inconclusive and do not appear here. Some of the results follow.
Please give the numeric answer without any surrounding text.

Supply recorded normalized growth for CCCNC(=O)NS(=O)(=O)c1ccc(Cl)cc1 here. 1.01

Determine from records and report normalized growth for C[C@]12CCC3C(CC[C@H]4C[C@H](O)CC[C@]34C)C1CC[C@@H]2O (stereo partly drawn) 0.974

Give a short answer stating reported normalized growth for CN(C)C(=O)Oc1ccc[n+](C)c1 . 1.01

Reference source for all entries: PubChem BioAssay AID1159580
